System: SNB-19 CNS
experiment.description: NCI tumour cell line growth inhibition, 48 h; in the data active = GI50 below about 0.43 µM; inactive = the rest
Hi! Could you answer with just one of these? active, inactive

Completed entries (count: 6):
CO[C@H]1C(=O)[C@]2(C)[C@@H](OC)C[C@H]3OC[C@@]3(OC(C)=O)[C@H]2[C@H](OC(=O)c2ccccc2)[C@]2(O)C[C@H](OC(=O)[C@H](O)[C@@H](NC(=O)OC(C)(C)C)c3ccccc3)C(C)=C1C2(C)C    active
Cc1ccc(C(=O)Nc2ccc(Oc3cc4cnn(C)c4cc3-c3cn[nH]c3)c(F)c2)c(=O)n1-c1ccc(F)cc1    inactive
CCN1C(=O)N(CC)C2C1NC(=S)N2/N=C/C=C/c1ccccc1 (stereo not given)    active
COc1cc([C@@H]2c3cc4c(cc3[C@H](SC(=N)N)[C@H]3COC(=O)[C@H]23)OCO4)cc(OC)c1OC    inactive
C[C@]12CCc3nc(Nc4ccc(O)cc4)sc3C1=CC[C@@H]1[C@@H]2CC[C@]2(C)/C(=N/NC(N)=S)CC[C@@H]12    inactive
OCc1ccc(-c2ccc(-c3ccc(CO)o3)o2)o1    inactive

[ask] For O=c1[nH]c(=S)[nH]c(O)c1/C=C1\C=Nc2ccccc21 , what call appears in the results of this test?
[reply] inactive

[ask] For COc1ccc([C@@]23Oc4cc(OC)cc(OC)c4[C@]2(O)[C@H](O)[C@H](C(=O)N(C)C)[C@H]3c2ccccc2)cc1 , what call appears in the results of this test?
[reply] active

[ask] For COc1ccc(-c2cnc(-c3ccncc3-c3cccc(OC)c3)o2)cc1 , what call appears in the results of this test?
[reply] active

[ask] For O=C(Nc1nc2ccc(S(=O)(=O)Nc3ccc(C4(C(F)(F)F)CC4)cc3)cc2[nH]1)c1cnccn1 , what call appears in the results of this test?
[reply] inactive

###

Recorded TGI by entry
Tested on: IGROV1 ovarian
experiment.description: NCI tumour cell line growth inhibition, 48 h

Please review the following examples before continuing.
Cc1cc2nc(N3C(=O)/C(=C/Cc4ccco4)N=C3c3ccccc3)sc2cc1C    > 100 µM
Cc1ccc2ccc3c4ccccc4ccc3c2c1    94.8 µM

Summary for this compound, CCC12CCC[C@@]13C=C[C@H](O3)C(C)(C)C2=O (stereo partly specified) : TGI is > 100 µM

Summary for this compound, O=C(N/N=C/c1ccccc1)c1c(F)c(F)c(F)c(F)c1F : TGI is > 100 µM

Summary for this compound, CC(=O)c1c(-c2ccc(Cl)cc2)c(C#N)c(=S)n(C2OC(CO)C(O)C(O)C2O)c1C (stereo unspecified) : TGI is > 100 µM

Summary for this compound, Nc1nc(Cl)c2ncn(Cc3ccc(C45CC6CC(CC(C6)C4)C5)c(OCc4cc(F)c(F)cc4F)c3)c2n1 : TGI is 13.8 µM

Summary for this compound, O=C(O)[C@H]1NC[C@H]2C(Br)=NO[C@@H]12 : TGI is > 100 µM

Summary for this compound, N#Cc1ccccc1Sc1ccccc1N : TGI is > 100 µM

Summary for this compound, CC(C)c1ccc(Cc2ccc(C(C)C)c(NC(=O)C(=O)Cc3cnc4ccccc4n3)c2C(C)C)c(C(C)C)c1NC(=O)C(=O)Cc1cnc2ccccc2n1 : TGI is > 100 µM

Summary for this compound, O=C(Nc1nc2ccc(S(=O)(=O)Nc3ccc(C4(C(F)(F)F)CC4)cc3)cc2[nH]1)c1cnccn1 : TGI is 18.5 µM

Summary for this compound, Cc1ccc(-n2c3nc(=O)n(C)c(=O)c-3nc3ccccc32)c(C)c1 : TGI is 36.4 µM

Summary for this compound, COc1ccc(C2C(=O)c3ccc(OC)cc3OC2c2cccnc2)cc1 (stereo unspecified) : TGI is > 100 µM

Summary for this compound, Oc1cn(-c2ccc(Cl)cc2)nc1-c1n[nH]c(=S)n1-c1ccc(F)cc1 : TGI is 24.1 µM

Summary for this compound, O=C(Nc1ccc(-n2cc(-c3ccncc3)c(-c3ccc(O)c(Cl)c3)n2)cc1)Nc1cc(C(F)(F)F)cc(C(F)(F)F)c1 : TGI is 18.9 µM

Summary for this compound, COc1ccc(-c2cnc(-c3ccncc3-c3cccc(OC)c3)o2)cc1 : TGI is 18.4 µM

Summary for this compound, COc1cc(C=O)cc(C=Nc2ccc(Br)cc2)c1O : TGI is > 100 µM

Where do these numbers come from? They come from PubChem BioAssay (NCI).
